testedSystem: B2-AR (Homo sapiens)
Construct: expressed in transfected cells; host or cells: CHO-K1
Sequence (P07550 whole entry, species assumed): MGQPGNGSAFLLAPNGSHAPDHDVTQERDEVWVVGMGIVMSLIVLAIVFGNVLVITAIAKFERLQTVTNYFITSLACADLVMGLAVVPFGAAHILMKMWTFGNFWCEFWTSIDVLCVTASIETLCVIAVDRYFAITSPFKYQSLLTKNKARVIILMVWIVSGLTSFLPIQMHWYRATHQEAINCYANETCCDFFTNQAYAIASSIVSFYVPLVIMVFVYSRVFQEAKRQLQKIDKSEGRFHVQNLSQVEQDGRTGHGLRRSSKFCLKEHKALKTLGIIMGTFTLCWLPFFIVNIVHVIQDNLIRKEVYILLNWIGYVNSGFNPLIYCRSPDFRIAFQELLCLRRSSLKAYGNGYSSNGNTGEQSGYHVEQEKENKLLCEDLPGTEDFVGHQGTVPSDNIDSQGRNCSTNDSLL
assayNotes: cAMP Gs dynamic HTRF assay, cells expressing beta-adrenergic receptor (CHO-K1), B2-AR
Format: cell-based
reportedConditions: CHO-K1 cells, cAMP HTRF; read-out: pEC50 [B2-AR] (converted)
recordedMetric: EC50

Known results for compounds:
sampleSmiles: C[C@@H](NC[C@H](O)c1cccc2[nH]ncc12)C(C)(C)C
testedSystem: B2-AR (Homo sapiens)
result: < 10 nM

sampleSmiles: CC(C)NC[C@H](O)c1cccc2[nH]cc(F)c12
testedSystem: B2-AR (Homo sapiens)
result: < 10 nM

sampleSmiles: CC(C)(C)NC[C@H](O)c1cccc2[nH]c(=O)[nH]c12
testedSystem: B2-AR (Homo sapiens)
result: 100 to 1000 nM

sampleSmiles: Cc1ncccc1[C@@H](O)CNC1(C)CC1
testedSystem: B2-AR (Homo sapiens)
result: 10 to 100 nM

sampleSmiles: CC(C)C(C)(C)NC[C@H](O)c1ccc(F)c2[nH]ncc12
testedSystem: B2-AR (Homo sapiens)
result: < 10 nM

Field: next compound
What measured EC50 goes with Cn1ccc(CNC[C@H](O)c2cccc3[nH]ncc23)n1 ?
100 to 1000 nM
